Task for the reader: assign each of the following binders its reported MPO release from human PMNs, EC50.
Target: T1, C5a receptor expressed on the surface of human PMNs (human, UniProt P21730 1-350)
T1 sequence (looked up): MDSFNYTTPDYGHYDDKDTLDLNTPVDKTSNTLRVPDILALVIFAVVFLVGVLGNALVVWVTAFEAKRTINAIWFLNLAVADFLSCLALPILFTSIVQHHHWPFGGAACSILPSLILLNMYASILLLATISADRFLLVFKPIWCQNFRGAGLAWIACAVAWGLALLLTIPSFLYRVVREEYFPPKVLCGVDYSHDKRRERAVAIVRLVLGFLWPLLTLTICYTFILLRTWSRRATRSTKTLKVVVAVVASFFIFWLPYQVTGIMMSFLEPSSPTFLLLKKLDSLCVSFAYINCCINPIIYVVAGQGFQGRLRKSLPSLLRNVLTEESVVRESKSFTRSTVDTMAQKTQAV
Experiment: cell-based or functional assay
Non-standard residues stand in square brackets, D forms with d. No end group written: not given here.
Give bare numbers, in µM.

Solved cases (4 shown):
{"Binder": "IPQSLDSWWTSLRRYSFKPMPL[dA]R (synthetic peptide; also called double-Arg-linked C5a-active construct) [IPQSLDSWWTSLRRYSFKPMPLaR]", "Unit Of Measure": "µM", "Value Measured": 0.54}
{"Binder": "natural C5a (ligand, UniProt P01031 678-751, looked up, C5a is a fragment of it) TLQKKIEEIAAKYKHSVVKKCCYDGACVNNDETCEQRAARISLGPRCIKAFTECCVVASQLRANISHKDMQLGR", "Unit Of Measure": "µM", "Value Measured": 0.003}
{"Binder": "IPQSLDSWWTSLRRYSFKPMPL[dA]RG (synthetic peptide) [IPQSLDSWWTSLRRYSFKPMPLaRG]", "Unit Of Measure": "µM", "Value Measured": 2.56}
{"Binder": "IPQSLDSWWTSLYSFKPMPL[dA]R (synthetic peptide) [IPQSLDSWWTSLYSFKPMPLaR]", "Unit Of Measure": "µM", "Value Measured": 1.58}

As a next step, examine the binder that follows.
Tell me the measured MPO release from human PMNs, EC50 of IPQSLDSWWTSLRVRRYSFKPMPL[dA]R (synthetic peptide; also called RVRR-containing C5a-active construct) [IPQSLDSWWTSLRVRRYSFKPMPLaR] , please.
2.15
